Data provenance is patent EP4667464A1.

pIC50 for assorted compounds
TESTED_SYSTEM: SOS1 (Homo sapiens)
Construct: HIS-SOS1cat (160 nM; Cytoskeleton, US); His (N); purchased Cytoskeleton
Sequence (Q07889 564-1049 limits assumed): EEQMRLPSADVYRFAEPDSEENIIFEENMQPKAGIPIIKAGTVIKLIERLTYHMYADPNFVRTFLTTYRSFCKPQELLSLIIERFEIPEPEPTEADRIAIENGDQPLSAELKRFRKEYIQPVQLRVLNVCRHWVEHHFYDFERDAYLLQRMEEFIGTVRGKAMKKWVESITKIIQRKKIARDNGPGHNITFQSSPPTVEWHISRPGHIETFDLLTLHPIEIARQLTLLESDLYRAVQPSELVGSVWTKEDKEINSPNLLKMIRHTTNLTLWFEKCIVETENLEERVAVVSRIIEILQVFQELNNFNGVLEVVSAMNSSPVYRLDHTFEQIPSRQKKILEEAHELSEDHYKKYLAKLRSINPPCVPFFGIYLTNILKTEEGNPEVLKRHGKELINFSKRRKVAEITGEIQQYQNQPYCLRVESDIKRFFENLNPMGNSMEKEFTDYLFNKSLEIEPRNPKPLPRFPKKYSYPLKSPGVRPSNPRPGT
PROTOCOL_SUMMARY: SOS-catalyzed nucleotide exchange assay (HTRF, SOS1-mediated GTP loading of KRAS G12D)
Format: biochemical
pIC50: −log10 of the molar value.

COMPOUND	TESTED_SYSTEM	pIC50
C[C@@H](NC(=O)c1ccc(=O)n(-c2cncc(-c3cnnn3[C@H]3CCNC3)c2)n1)c1cccc(C(F)(F)F)c1F [Example 20-5]	SOS1 (Homo sapiens)	6.82 to 7.30
C[C@@H](NC(=O)c1cc(CO)c(=O)n(-c2cncc(-c3cnnn3C3CC3)c2)n1)c1cccc(C(F)(F)F)c1F [Example 6-3]	SOS1 (Homo sapiens)	> 7.30
C[C@@H](NC(=O)c1ccc(=O)n(-c2cnc(F)c(-c3cnnn3C)c2)n1)c1cccc(C(F)(F)F)c1F [Example 6]	SOS1 (Homo sapiens)	6.82 to 7.30
C[C@@H](NC(=O)c1ccc(=O)n(-c2cnnc(-c3cnnn3C)c2)n1)c1cccc(C(F)F)c1F [Example 5]	SOS1 (Homo sapiens)	< 6.82
C[C@@H](NC(=O)c1ccc(=O)n(-c2cnnc(-c3cnnn3C)c2)n1)c1cccc(C(F)(F)F)c1F [Example 4]	SOS1 (Homo sapiens)	< 6.82
C[C@@H](NC(=O)c1ccc(=O)n(-c2cncc(-c3cnnn3[C@H]3CC3(F)F)c2)n1)c1cccc(C(F)(F)CO)c1F (single isomer, unassigned) [Example 25]	SOS1 (Homo sapiens)	> 7.30
[2H]C([2H])(O)C(F)(F)c1cccc([C@@H](C)NC(=O)c2ccc(=O)n(-c3cncc(-c4cnnn4C4CNC4)c3)n2)c1F [Example 20-3]	SOS1 (Homo sapiens)	> 7.30
C[C@@H](NC(=O)c1ccc(=O)n(-c2cncc(-c3cnnn3[C@@H]3CC3(F)F)c2)n1)c1cccc(C(F)(F)CO)c1F (single isomer, unassigned) [Example 26]	SOS1 (Homo sapiens)	> 7.30

* * *

TESTED_SYSTEM: SOS1 (Homo sapiens)
Construct: HIS-SOS1cat (160 nM; Cytoskeleton, US); His (N); purchased Cytoskeleton
PROTOCOL_SUMMARY: SOS-catalyzed nucleotide exchange assay (HTRF, SOS1-mediated GTP loading of KRAS G12D)
Type: biochemical
EXPERIMENTAL_CONDITIONS: GST-KRAS G12D, HIS-SOS1cat, compound 128 pM to 10 µM; read-out: SOS-catalyzed nucleotide exchange assay
// values below are reported IC50
RECORDED_METRIC: IC50

>>> print(df.to_string())
                                given_smiles   test_result
 0  C[C@@H](NC(=O)c1ccc(=O)n(-c2cncc(-c3cnnn3C3CCC3)c2)n1)c1cccc(C(F)(F)F)c1F       < 50 nM
 1  C[C@@H](NC(=O)c1cc(C#N)c(=O)n(-c2cncc(-c3cnnn3C)c2)n1)c1cccc(C(F)F)c1F  50 to 150 nM
 2  CC(=O)N1CC(n2nncc2-c2cncc(-n3nc(C(=O)N[C@H](C)c4cccc(C(F)(F)F)c4F)ccc3=O)c2)C1       < 50 nM
 3  CCn1nncc1-c1cncc(-n2nc(C(=O)N[C@H](C)c3cccc(C(F)(F)F)c3F)ccc2=O)c1       < 50 nM
 4  [2H]C([2H])(O)C(F)(F)c1cccc([C@@H](C)NC(=O)c2ccc(=O)n(-c3cncc(-c4cnnn4C4COC4)c3)n2)c1F       < 50 nM
 5  Cc1c([C@@H](C)NC(=O)c2cc(C)c(=O)n(-c3cncc(-c4cnnn4C)c3)n2)cc(N)cc1C(F)(F)F       < 50 nM
 6  C[C@@H](NC(=O)c1ccc(=O)n(-c2cncc(-c3cnnn3C3CN(CCO)C3)c2)n1)c1cccc(C(F)(F)F)c1F       < 50 nM
 7  C[C@@H](NC(=O)c1cc(C2CC2)c(=O)n(-c2cncc(-c3cnnn3C)c2)n1)c1cccc(C(F)(F)F)c1F       < 50 nM
 8  C[C@@H](NC(=O)c1cc(C#N)c(=O)n(-c2cc(-c3cnnn3C)cnc2F)n1)c1cccc(C(F)(F)CO)c1F       < 50 nM
 9  [2H]c1cc(C(=O)N[C@H](C)c2cccc(C(F)(F)CO)c2F)nn(-c2cncc(-c3cnnn3C3CC3)c2)c1=O       < 50 nM
10  COCC(F)(F)c1cccc([C@@H](C)NC(=O)c2ccc(=O)n(-c3cncc(-c4cnnn4C)c3)n2)c1F       < 50 nM
11  [2H][C@](C)(NC(=O)c1ccc(=O)n(-c2cncc(-c3cnnn3C)c2)n1)c1cccc(C(F)(F)F)c1F  50 to 150 nM
12  CCn1nncc1-c1cc(-n2nc(C(=O)N[C@H](C)c3cccc(C(F)(F)F)c3F)ccc2=O)cnc1C  50 to 150 nM
13  C[C@@H](NC(=O)c1cc(C(F)(F)F)c(=O)n(-c2cncc(-c3cnnn3C)c2)n1)c1cccc(C(F)(F)CO)c1F       < 50 nM
